Source listed as patent US5635525A.

Target: angiotensin II receptor
Assay: displacement of 125I- or 3H-angiotensin II from receptor preparations from various organs (liver, lung, adrenal gland, brain etc.)
Details: "according to the abovementioned process"; which of the two binding methods is not stated
For each of the compounds below, state its pIC50.
Answers are plain numbers, as −log10 of the molar value.

# example entries with known answers
GIVEN_SMILES	TARGET_DESC	READOUT_KIND	REPORTED_MEASUREMENT
C=CCOC(=O)N(C(=O)OCC=C)S(=O)(=O)c1ccccc1-c1ccc(Cn2c(CC)nc3c(C)cc(C)nc32)cc1	angiotensin II receptor	pIC50	9.10
CCCCc1nc2cccc(C(=O)O)c2n1Cc1ccn2c(C(=O)O)c(-c3ccccc3)nc2n1	angiotensin II receptor	pIC50	6.83
CCCCc1nc2cccc(C(=O)O)c2n1Cc1ccn2c(C(=O)O)c(-c3ccccc3)nc2c1	angiotensin II receptor	pIC50	7.19

# compound CCNC(=O)NS(=O)(=O)c1ccccc1-c1ccc(Cn2c(CC)nc3c(C)ccnc32)cc1 ; its pIC50 = 9.32
